Source listed as PubChem BioAssay (EPA / NIEHS).

Read-out: urokinase plasminogen activator (uPA), PLAU (gene 5328)
Test: BSK_BE3C_uPA: BioMAP Diversity Plus: BE3C Assay for urokinase plasminogen activator (uPA) Biomarker Activity (AID 2283038)
Settings: primary human bronchial epithelial cells; actives raise or lower the signal
Calls of active or inactive are those of the source. Rule for the calls: active = hit-call score of the fitted dose curve at least 0.9, where 1 is the maximum; inactive = score below 0.9.
Classes used: active, inactive

{"compound": "CCCCN(CCCC)N=O", "label.value": "inactive"}
{"compound": "NC(=O)C(F)(F)C(F)(F)F", "label.value": "inactive"}
{"compound": "c1ccc2c(c1)Nc1ccccc1S2", "label.value": "inactive"}
{"compound": "CCCCOCCOP(=O)(OCCOCCCC)OCCOCCCC", "label.value": "inactive"}
{"compound": "COCCOCCO", "label.value": "inactive"}
{"compound": "CCC1(c2ccccc2)C(=O)N=C(O)NC1=O (stereo not drawn)", "label.value": "inactive"}
{"compound": "ClC(Cl)=C(c1ccc(Cl)cc1)c1ccccc1Cl", "label.value": "active"}
{"compound": "Cc1ccc2c(c1N)C(=O)c1ccccc1C2=O", "label.value": "inactive"}

====

Target: Aryl hydrocarbon receptor (Homo sapiens) (UniProt P35869)
Sequence (P35869 whole entry, looked up): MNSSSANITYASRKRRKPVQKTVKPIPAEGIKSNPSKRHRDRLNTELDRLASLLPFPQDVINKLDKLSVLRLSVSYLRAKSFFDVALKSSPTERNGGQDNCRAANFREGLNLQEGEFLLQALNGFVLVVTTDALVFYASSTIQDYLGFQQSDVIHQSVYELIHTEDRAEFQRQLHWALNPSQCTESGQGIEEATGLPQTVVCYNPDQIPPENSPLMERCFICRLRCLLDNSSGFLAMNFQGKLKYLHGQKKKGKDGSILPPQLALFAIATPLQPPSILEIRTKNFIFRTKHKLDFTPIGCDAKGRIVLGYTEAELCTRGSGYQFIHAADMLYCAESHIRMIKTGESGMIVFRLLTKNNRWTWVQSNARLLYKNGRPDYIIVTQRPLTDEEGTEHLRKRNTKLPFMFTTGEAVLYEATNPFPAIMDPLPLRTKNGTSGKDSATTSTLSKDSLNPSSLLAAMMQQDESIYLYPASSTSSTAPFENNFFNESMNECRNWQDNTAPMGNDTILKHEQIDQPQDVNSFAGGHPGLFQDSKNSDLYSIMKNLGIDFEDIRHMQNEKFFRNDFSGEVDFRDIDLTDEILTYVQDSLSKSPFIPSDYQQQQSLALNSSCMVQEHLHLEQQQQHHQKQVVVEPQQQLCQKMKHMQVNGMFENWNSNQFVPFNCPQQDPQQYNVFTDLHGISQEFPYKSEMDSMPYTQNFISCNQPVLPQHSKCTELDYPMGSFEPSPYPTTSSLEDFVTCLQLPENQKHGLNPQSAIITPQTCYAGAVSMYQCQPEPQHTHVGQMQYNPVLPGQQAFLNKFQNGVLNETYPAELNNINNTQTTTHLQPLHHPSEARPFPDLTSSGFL
Assay: ATG_Ahr_CIS: Attagene CIS-FACTORIAL HepG2 Assay for human Aryl Hydrocarbon Receptor (Ahr) (AID 2282930)
Conditions: HepG2 AhR cis-factorial reporter transcription; actives raise or lower the signal
Procedure: ATG_CIS is a cell-based, multiplexed-readout assay that uses HepG2, a human liver cell line, with measurements taken at 24 hours after chemical dosing in a 24-well plate.ATG_Ahr_CIS is one of 52 assay component(s) measured or calculated from the ATG_CIS assay. […] This assay endpoint, ATG_Ahr_CIS, was analyzed with bidirectional fitting relative to DMSO as the negative control and baseline of activity. […]
Calls of active or inactive are those of the source. The calls were made as follows: active = hit-call score of the fitted dose curve at least 0.9, where 1 is the maximum; inactive = score below 0.9.
Labels: 1 = active, 0 = inactive

{"compound": "Nc1ccc(Cl)cc1", "tested.system": "Aryl hydrocarbon receptor (Homo sapiens) (UniProt P35869)", "label.value": 0}
{"compound": "CCN(CC)c1ccccc1", "tested.system": "Aryl hydrocarbon receptor (Homo sapiens) (UniProt P35869)", "label.value": 0}
{"compound": "CCOP(=S)(OCC)SCSc1ccc(Cl)cc1", "tested.system": "Aryl hydrocarbon receptor (Homo sapiens) (UniProt P35869)", "label.value": 0}
{"compound": "N#Cc1c(-c2ccc(Cl)cc2)[nH]c(C(F)(F)F)c1Br", "tested.system": "Aryl hydrocarbon receptor (Homo sapiens) (UniProt P35869)", "label.value": 1}
{"compound": "CC(C)(C)c1ccccc1OP(=O)(Oc1ccccc1)Oc1ccccc1", "tested.system": "Aryl hydrocarbon receptor (Homo sapiens) (UniProt P35869)", "label.value": 0}
{"compound": "OCC(F)(F)OC(F)(F)C(F)(F)OC(F)(F)C(F)(F)OC(F)(F)CO", "tested.system": "Aryl hydrocarbon receptor (Homo sapiens) (UniProt P35869)", "label.value": 0}
{"compound": "CN(C)C(=O)Cl", "tested.system": "Aryl hydrocarbon receptor (Homo sapiens) (UniProt P35869)", "label.value": 0}
{"compound": "CCCCc1ccccc1", "tested.system": "Aryl hydrocarbon receptor (Homo sapiens) (UniProt P35869)", "label.value": 0}
{"compound": "OCC1CO1 (centres undefined)", "tested.system": "Aryl hydrocarbon receptor (Homo sapiens) (UniProt P35869)", "label.value": 0}
{"compound": "Cc1cc(C)c(C(=O)P(=O)(c2ccccc2)c2ccccc2)c(C)c1", "tested.system": "Aryl hydrocarbon receptor (Homo sapiens) (UniProt P35869)", "label.value": 0}
{"compound": "CSC(C)(C)C=NO", "tested.system": "Aryl hydrocarbon receptor (Homo sapiens) (UniProt P35869)", "label.value": 0}
{"compound": "CC(O)C#N (centres undefined)", "tested.system": "Aryl hydrocarbon receptor (Homo sapiens) (UniProt P35869)", "label.value": 0}
{"compound": "CCOP(=S)(NC(C)C)Oc1ccccc1C(=O)OC(C)C (centres undefined)", "tested.system": "Aryl hydrocarbon receptor (Homo sapiens) (UniProt P35869)", "label.value": 0}
{"compound": "C=CC(=O)OCC(F)(F)C(F)F", "tested.system": "Aryl hydrocarbon receptor (Homo sapiens) (UniProt P35869)", "label.value": 0}
{"compound": "O=S1(=O)OCC2C(CO1)C1(Cl)C(Cl)=C(Cl)C2(Cl)C1(Cl)Cl (centres undefined)", "tested.system": "Aryl hydrocarbon receptor (Homo sapiens) (UniProt P35869)", "label.value": 1}
{"compound": "O=C(O)C(Cl)Cl", "tested.system": "Aryl hydrocarbon receptor (Homo sapiens) (UniProt P35869)", "label.value": 0}
{"compound": "CCOP(=S)(Oc1ccc([N+](=O)[O-])cc1)c1ccccc1 (centres undefined)", "tested.system": "Aryl hydrocarbon receptor (Homo sapiens) (UniProt P35869)", "label.value": 0}
{"compound": "CC1=C(C(=O)Nc2ccccc2)S(=O)(=O)CCO1", "tested.system": "Aryl hydrocarbon receptor (Homo sapiens) (UniProt P35869)", "label.value": 0}
{"compound": "Nc1cc2c3c(c1)C(c1ccccc1)=N[C@@H](NC(=O)c1cccnc1)C(=O)N3CC2", "tested.system": "Aryl hydrocarbon receptor (Homo sapiens) (UniProt P35869)", "label.value": 0}
{"compound": "O=C(O)C(F)(F)C(F)(F)C(=O)O", "tested.system": "Aryl hydrocarbon receptor (Homo sapiens) (UniProt P35869)", "label.value": 0}
{"compound": "Cc1ccc(N)cc1N", "tested.system": "Aryl hydrocarbon receptor (Homo sapiens) (UniProt P35869)", "label.value": 1}
{"compound": "CC(C)CBr", "tested.system": "Aryl hydrocarbon receptor (Homo sapiens) (UniProt P35869)", "label.value": 0}
{"compound": "CC(=O)c1ccc(-c2ccccc2)cc1", "tested.system": "Aryl hydrocarbon receptor (Homo sapiens) (UniProt P35869)", "label.value": 1}
{"compound": "O=[N+]([O-])c1cc(Cl)ccc1Cl", "tested.system": "Aryl hydrocarbon receptor (Homo sapiens) (UniProt P35869)", "label.value": 0}
{"compound": "O=[N+]([O-])c1ccccc1", "tested.system": "Aryl hydrocarbon receptor (Homo sapiens) (UniProt P35869)", "label.value": 0}
{"compound": "CCOP(=S)(OCC)SCn1nnc2ccccc2c1=O", "tested.system": "Aryl hydrocarbon receptor (Homo sapiens) (UniProt P35869)", "label.value": 0}
{"compound": "CC(Cc1ccc(OCC(=O)O)cc1)NCC(O)c1csc(C(F)(F)F)n1 (centres undefined)", "tested.system": "Aryl hydrocarbon receptor (Homo sapiens) (UniProt P35869)", "label.value": 0}
{"compound": "C=C(C)C(=O)OCC1CO1 (centres undefined)", "tested.system": "Aryl hydrocarbon receptor (Homo sapiens) (UniProt P35869)", "label.value": 0}
{"compound": "ClC(Cl)=C(c1ccc(Cl)cc1)c1ccccc1Cl", "tested.system": "Aryl hydrocarbon receptor (Homo sapiens) (UniProt P35869)", "label.value": 1}

====

Read-out: Heat shock 70 kDa protein 1 (HSPA1A), gene 3303
Test: LTEA_HepaRG_HSPA1A: Life Technologies and Expression Analysis (LTEA) Assay for Heat shock 70 kDa protein 1 (HSPA1A) using HepaRG (AID 2283502)
Settings: mRNA level, 48 h; actives raise or lower the signal
Activity calls are given as the source filed them. How the source made its calls: active means hit-call score of the fitted dose curve at least 0.9, where 1 is the maximum; inactive means score below 0.9.

{"compound": "ClC(Cl)c1ccccc1", "outcome": "inactive"}
{"compound": "CC(Cl)(Cl)C(=O)O", "outcome": "inactive"}
{"compound": "CC(C)(C)c1ccc(O)cc1", "outcome": "inactive"}
{"compound": "Nc1ccc2ccccc2c1", "outcome": "inactive"}
{"compound": "CCCCCCCc1ccc(O)cc1", "outcome": "inactive"}
{"compound": "CN(C)C(=O)Cl", "outcome": "inactive"}
{"compound": "O=P1(N(CCCl)CCCl)NCCCO1 (stereo not given)", "outcome": "inactive"}
{"compound": "O=[N+]([O-])c1ccccc1", "outcome": "inactive"}
{"compound": "CCOC(=O)c1ccccc1C(=O)OCC", "outcome": "inactive"}
{"compound": "CSC(C)(C)C=NO", "outcome": "inactive"}
{"compound": "OCC1CO1 (stereo not given)", "outcome": "inactive"}
{"compound": "COCCOCCO", "outcome": "inactive"}
{"compound": "ClC1=C(Cl)C2(Cl)C3C(Cl)C(Cl)CC3C1(Cl)C2(Cl)Cl (stereo not given)", "outcome": "inactive"}
{"compound": "O=C(O)C1C(C(=O)O)C2(Cl)C(Cl)=C(Cl)C1(Cl)C2(Cl)Cl (stereo not given)", "outcome": "inactive"}
{"compound": "Nc1cc2c3c(c1)C(c1ccccc1)=N[C@@H](NC(=O)c1cccnc1)C(=O)N3CC2", "outcome": "inactive"}

====

Assay: ATG_NF_kB_CIS: Attagene CIS-FACTORIAL HepG2 Assay for human Nuclear Factor Kappa B (NF-kB) (AID 2282991)
Conditions: HepG2 Attagene cis-factorial NF-kB reporter mRNA; actives raise or lower the signal
The source made the active and inactive calls. How the source made its calls: active means hit-call score of the fitted dose curve at least 0.9, where 1 is the maximum; inactive means score below 0.9.
Outcomes: y = active, n = inactive

{"compound": "CCCCOCCOP(=O)(OCCOCCCC)OCCOCCCC", "label.value": "n"}
{"compound": "COCCOCCO", "label.value": "n"}
{"compound": "CCCCC(CC)COP(=O)(Oc1ccccc1)Oc1ccccc1 (stereo not drawn)", "label.value": "y"}
{"compound": "Clc1ccc(Oc2ccccc2)cc1", "label.value": "n"}
{"compound": "O=NN1CCCC1", "label.value": "n"}
{"compound": "c1cc2c3c(cccc3c1)CC2", "label.value": "n"}
{"compound": "Oc1ccccc1Br", "label.value": "n"}
{"compound": "CCCCCCCc1ccc(O)cc1", "label.value": "n"}
{"compound": "CC(=O)CCc1ccc2c(c1)OCO2", "label.value": "n"}
{"compound": "COP(=O)(O)OC", "label.value": "n"}
{"compound": "ClC1=C(Cl)C2(Cl)C3C(Cl)C(Cl)CC3C1(Cl)C2(Cl)Cl (stereo not drawn)", "label.value": "n"}
{"compound": "c1nc[nH]n1", "label.value": "n"}
{"compound": "CCOP(=S)(OCC)SCSCC", "label.value": "n"}
{"compound": "O=C(O)C(F)(F)OC(F)(F)C(F)(F)OC(F)(F)C(=O)O", "label.value": "n"}
{"compound": "O=S(=O)(c1ccc(O)cc1)c1ccc(O)cc1", "label.value": "n"}
{"compound": "C/C(=N\\NC(=O)Nc1cc(F)cc(F)c1)c1ncccc1C(=O)O", "label.value": "n"}
{"compound": "N#C/C=C/c1ccccc1", "label.value": "n"}
{"compound": "CCCCN(CCCC)SN(C)C(=O)Oc1cccc2c1OC(C)(C)C2", "label.value": "n"}
{"compound": "O=[N+]([O-])c1ccccc1", "label.value": "n"}
{"compound": "OCC(F)(F)OC(F)(F)C(F)(F)OC(F)(F)C(F)(F)OC(F)(F)CO", "label.value": "n"}
{"compound": "C=C(C)C(=O)OCC1CO1 (stereo not drawn)", "label.value": "n"}
{"compound": "CCN(CC)c1ccccc1", "label.value": "n"}
{"compound": "CN(C)C(=O)Cl", "label.value": "n"}
{"compound": "CCOP(=S)(OCC)SCSc1ccc(Cl)cc1", "label.value": "n"}
{"compound": "CCNc1nc(Cl)nc(NC(C)(C)C)n1", "label.value": "n"}
{"compound": "O=C(O)C1C(C(=O)O)C2(Cl)C(Cl)=C(Cl)C1(Cl)C2(Cl)Cl (stereo not drawn)", "label.value": "n"}
{"compound": "Cc1cccc(N)c1", "label.value": "n"}
{"compound": "COP(N)(=S)OC", "label.value": "n"}
{"compound": "Cc1ccc(C(=O)Cl)cc1", "label.value": "n"}
{"compound": "CCOP(=S)(OCC)SCS(=O)(=O)CC", "label.value": "n"}
{"compound": "CCOP(=S)(Oc1ccc([N+](=O)[O-])cc1)c1ccccc1 (stereo not drawn)", "label.value": "n"}
{"compound": "ClC(Cl)=C(c1ccc(Cl)cc1)c1ccccc1Cl", "label.value": "n"}
{"compound": "O=C(CBr)OCc1ccccc1", "label.value": "n"}
{"compound": "CCCCN(CCCC)N=O", "label.value": "n"}
{"compound": "O=S(=O)(F)C(F)(F)C(F)(F)C(F)(F)C(F)(F)C(F)(F)C(F)(F)C(F)(F)C(F)(F)F", "label.value": "n"}
{"compound": "CCC1(c2ccccc2)C(=O)N=C(O)NC1=O (stereo not drawn)", "label.value": "n"}
{"compound": "O=[N+]([O-])c1ccc(Cl)c(Cl)c1", "label.value": "n"}
{"compound": "CCN(CC)C1CCCCC1", "label.value": "n"}
{"compound": "Cc1cc(C)c(C(=O)P(=O)(c2ccccc2)c2ccccc2)c(C)c1", "label.value": "n"}
{"compound": "N#Cc1c(-c2ccc(Cl)cc2)[nH]c(C(F)(F)F)c1Br", "label.value": "n"}
{"compound": "O=P(OCC(Br)CBr)(OCC(Br)CBr)OCC(Br)CBr (stereo not drawn)", "label.value": "n"}
{"compound": "C=CC(=O)OCC(CC)(COC(=O)C=C)COC(=O)C=C", "label.value": "y"}
{"compound": "CC1(C)CN=C(NN=C(/C=C/c2ccc(C(F)(F)F)cc2)/C=C/c2ccc(C(F)(F)F)cc2)NC1", "label.value": "n"}
{"compound": "Oc1ccc(I)cc1", "label.value": "n"}
{"compound": "O=P1(N(CCCl)CCCl)NCCCO1 (stereo not drawn)", "label.value": "n"}
{"compound": "CCC(C)(C)c1ccc(O)cc1", "label.value": "n"}
{"compound": "CC(C)(C)OOC(C)(C)C", "label.value": "n"}
{"compound": "O=C(O)C(F)(OC(F)(F)C(F)(F)C(F)(F)F)C(F)(F)F (stereo not drawn)", "label.value": "n"}
{"compound": "O=C(O)C=CC(F)(C(F)(F)F)C(F)(F)F", "label.value": "n"}
{"compound": "CC(Cl)CN(C)C (stereo not drawn)", "label.value": "n"}
{"compound": "NNC(N)=S", "label.value": "n"}
{"compound": "O=C(O)C(F)(F)C(F)(F)C(=O)O", "label.value": "n"}
{"compound": "O=P(Oc1ccccc1)(Oc1ccccc1)Oc1ccccc1", "label.value": "n"}
